In this section we review reported IC50 values for a set of compounds.
- ASSAY NAME: Displacement of Fluormone-AL green from rat GST/His-tagged AR LBD mutant after 4 hrs by Fluorescence polarization assay

Please review the following examples before continuing.
COMPOUND: N#Cc1ccc(N2C(=O)C3Cc4ccc([N+](=O)[O-])cc4N3C2=S)cc1C(F)(F)F (centres undefined)
IC50: 4490 nM
//
COMPOUND: N#Cc1ccc(N2C(=O)C3Cc4ccc(Cl)cc4N3C2=S)cc1C(F)(F)F (centres undefined)
IC50: 2330 nM
//
COMPOUND: N#Cc1ccc(N2C(=O)C3Cc4ccc(Br)cc4N3C2=S)cc1C(F)(F)F (centres undefined)
IC50: 2980 nM

Now look at this one.
Reported IC50 of CNC(=O)c1ccc(N2C(=S)N(c3ccc(C#N)c(C(F)(F)F)c3)C(=O)C2(C)C)cc1F [ENZALUTAMIDE] : 1350 nM
